B1: USP39 (parent)
chain: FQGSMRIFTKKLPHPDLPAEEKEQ

# Variants of: B1
# assay-summary: protein stability index of a GFP-peptide fusion (GPS, HEK-293T) (PSI 1-6); higher = more stable;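 also: lentivirally expressed fusions sorted by FACS into six bins by GFP to DsRed ratio, PSI derived from sequencing read proportions per bin multiplied by bin number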
# condition-parameters: c terminus: a fixed tail appended
// reported protein stability index per item
measured-metric: protein stability index

>>> numeric_value("E20I")
2.03
>>> numeric_value("F1W")
4.78
>>> numeric_value("P18H")
1.82
>>> numeric_value("K11D")
2.08
>>> numeric_value("E23V")
1.47
>>> numeric_value("Q2T")
2.2
>>> numeric_value("G3Y")
2.57
>>> numeric_value("P13L")
1.65
>>> numeric_value("K22Y")
1.54
>>> numeric_value("G3P")
2.53
>>> numeric_value("P18D")
1.93
>>> numeric_value("Q2A")
2.29
>>> numeric_value("K11Y")
1.71
>>> numeric_value("Q24R")
2.15
>>> numeric_value("F1R")
4.95
>>> numeric_value("S4Y")
2.25
>>> numeric_value("I7V")
1.99
>>> numeric_value("E23L")
1.69
>>> numeric_value("S4I")
2.27
>>> numeric_value("K10V")
2.22
>>> numeric_value("F1I")
4.17
>>> numeric_value("E20H")
1.59
>>> numeric_value("E20K")
2.51
>>> numeric_value("R6P")
2.37
>>> numeric_value("I7E")
4.04
>>> numeric_value("F1H")
4.53
>>> numeric_value("T9S")
1.75
>>> numeric_value("K10G")
2.2
>>> numeric_value("F1Q")
4.89
>>> numeric_value("K10P")
3.29
>>> numeric_value("F8T")
3.89
>>> numeric_value("P18C")
1.83
>>> numeric_value("I7C")
1.8
>>> numeric_value("D16L")
2.3
>>> numeric_value("K22N")
2.09
>>> numeric_value("T9V")
1.5
>>> numeric_value("A19F")
1.81
>>> numeric_value("F8M")
3.52
>>> numeric_value("Q2F")
2.99
>>> numeric_value("F1N")
5.22
>>> numeric_value("T9G")
2.25
>>> numeric_value("T9H")
2
>>> numeric_value("Q2L")
2.73
>>> numeric_value("E21P")
2.02
>>> numeric_value("K22S")
1.88
>>> numeric_value("F1S")
5.04
>>> numeric_value("E23K")
1.84
>>> numeric_value("E21F")
2.29
>>> numeric_value("I7F")
2.94
>>> numeric_value("K10I")
1.74
>>> numeric_value("M5H")
1.82
>>> numeric_value("L17G")
2.19
>>> numeric_value("F8A")
3.6
>>> numeric_value("K11P")
1.84
>>> numeric_value("M5C")
2.62
>>> numeric_value("M5K")
2.07
>>> numeric_value("E20V")
1.5
>>> numeric_value("L17Y")
2.5
>>> numeric_value("T9C")
1.69
>>> numeric_value("T9W")
2.23
>>> numeric_value("R6Q")
2.22
>>> numeric_value("D16M")
1.76
>>> numeric_value("E23F")
1.38
>>> numeric_value("P15L")
1.85
>>> numeric_value("K11E")
2.85
>>> numeric_value("E21K")
1.91
>>> numeric_value("L17K")
1.66
>>> numeric_value("A19V")
2.25
>>> numeric_value("A19P")
2.5
>>> numeric_value("I7S")
3.38
>>> numeric_value("T9A")
2.04
>>> numeric_value("P13V")
1.75
>>> numeric_value("P13Q")
1.9
